System: MDA-MB-231 breast
procedure text: NCI tumour cell line growth inhibition, 48 h
Please go through the items and note down their TGI.

Some compounds with known TGI results, for comparison:
Cc1ccc(NC(=O)c2cccc(OP(=O)(O)Nc3ccc(C)cc3)c2)cc1 = > 100 µM
NC(=S)Nc1ccc(S(=O)(=O)Nc2ccc(S(N)(=O)=O)cc2)cc1 = > 100 µM
c1cc2c(ncc3cscc32)s1 = > 100 µM
CCCCN1CSC(=S)N(Cc2ccccc2)C1 = > 100 µM
COC1(OC)CC(CO)(CNc2nc(N)nc(Cl)c2/C=N\O)C1 = > 100 µM

Take each entry in turn and give its TGI.
1. C=C(C)C1CCC2(C(=O)O)CCC3(C)C(CCC4C5(C)CCC(OC(=O)NCc6ccccc6)C(C)(C)C5CCC43C)C12 (configuration not stated)
2. O=C1NN(C2=NNC3(C(=O)N2)c2ccccc2-c2ccccc23)C(c2ccccc2)=N/C1=C/c1ccc(O)cc1
3. COc1ccc(OC)c(C(=O)c2oc3ccc(Br)cc3c2N)c1
4. O=C1NCCCNCCCNCCCNC(=O)c2cccc1n2
5. CSC1=N/C(=C\c2ccccc2)C(=O)N1CN1CCCCC1
6. Cc1ccc2[nH]c(C(=O)NN3C(=O)C(C)SC34CCCC(C)C4)c(-c3ccccc3)c2c1 (configuration not stated)

Return:
["54.3 µM", "71.7 µg/mL", "26.7 µM", "> 100 µM", "> 100 µM", "> 100 µM"]

Enquiry: Query (compound): CC(=O)OC1(C)C=CC(=O)C=C1 ; field requested: TGI
Return: 49.1 µM

---

Test system: SK-MEL-28 melanoma
procedure text: NCI tumour cell line growth inhibition, 48 h
readout type: GI50

Some compounds with known GI50 results, for comparison:
CC[CH2][Sn]([Cl])([Cl])[CH2]CC.Oc1ccccc1C=NCCN=Cc1ccccc1O = 8.7 µM
c1cc[c]([Pb]([c]2ccccc2)[c]2ccccc2)cc1 = 16.5 µM
COc1ccc(C2SCC(=O)N2NC(=O)Nc2c(C)nc3ccccn23)cc1 (stereo not given) = > 100 µM
O=C1/C(=C/c2ccc(O)cc2)CSc2ccc(Cl)cc21 = 4.04 µM

Enquiry: Lab request: please report GI50 under test system SK-MEL-28 melanoma for Cn1c2ccccc2c2c3[nH]c(=O)[nH]c(=O)c3c3c4ccccc4n(C)c3c21
Return: 4.5 µM

---

Tested on: IGROV1 ovarian
procedure text: NCI tumour cell line growth inhibition, 48 h
Where a SMILES comes first, the peptide text is derived from it. The star is where a group is joined. Cbz = O=C(OCc1ccccc1)*; Boc = CC(C)(C)OC(=O)*; tBu = CC(C)(C)*
readout type: TGI

Some molecules with known TGI results, for comparison:
Cc1ccc2[nH]c(C(=O)NN3C(=O)C(C)SC34CCCC(C)C4)c(-c3ccccc3)c2c1 (stereo not drawn) = > 100 µM
COC(=O)C(COC(C)=O)NC(=O)/C=C/c1ccc(O)c(OC(C)=O)c1 (stereo not drawn) = > 100 µM

Enquiry: Query (molecule): CC(OC(C)(C)C)C(NC(=O)C(CCCCNC(=O)OC(C)(C)C)NC(=O)C(Cc1c[nH]c2ccccc12)NC(=O)C(Cc1ccccc1)NC(=O)OCc1ccccc1)C(=O)NC(Cc1ccccc1)C(=O)O (stereo not drawn) (Cbz-FWK(Boc)T(tBu)F-OH; configuration not given here) ; field requested: TGI
Return: 98.9 µM

---

Tested on: OVCAR-4 ovarian
procedure text: NCI tumour cell line growth inhibition, 48 h
readout type: TGI

N#Cc1nc(C2=C(Cl)c3ccccc3OC2)[nH]c1C#N = > 100 µM

Take each entry in turn and give its TGI.
1. CNC(=O)N1CN(c2ccccc2)C2(CCN(CCCC3(c4ccc(F)cc4)OCCO3)CC2)C1=O
2. c1cc[c]([Pb]([c]2ccccc2)[c]2ccccc2)cc1

Return:
["> 100 µM", "> 100 µM"]

Take each entry in turn and give its TGI.
1. O=C1CCCCC2N(C(c3ccccc3)c3ccccc3)CC[C@@]12c1ccccc1 (mixture of isomers)
2. COc1cc2c(c(OC)c1)C1(CC(CC#N)C2)SCCS1 (stereo not given)
3. COc1cccc(/C=C2\C(=O)N(C(=O)c3ccc(NC(C)=O)cc3)N=C2C)c1
4. COc1ccc(N2C(=O)c3cc(C)cnc3S2(=O)=O)cc1
5. CCOC(=O)C1(C(=O)OCC)C[C@H](C)[C@](C)(O)C1
6. C=C[C@H]1C[C@@H]2C[C@@H]3[C@H]4C/C=C\C(=O)NCCCC5NC(=O)C(=C(O)/C=C/[C@@H]4CC(=O)[C@H]3[C@@H]2[C@H]1C)C5=O (stereo not given in full)
7. Cc1ccc(-c2cc(=O)c3cc(C)c(C)c(C(=O)O)c3o2)cc1C

Return:
["> 10 µM", "> 100 µM", "> 100 µM", "> 100 µM", "> 100 µM", "0.413 µM", "> 100 µM"]

Take each entry in turn and give its TGI.
1. O=C1OC(c2ccco2)=N/C1=C\c1cccc([N+](=O)[O-])c1
2. CCc1c(C)c(C#N)c(=S)n(C2OC(COC(C)=O)C(OC(C)=O)C(OC(C)=O)C2OC(C)=O)c1C (stereo not given)
3. O=C1C(Cl)C(c2cccc(Cl)c2)N1c1ccc(-n2c(=S)[nH]c3ccccc3c2=O)cc1 (stereo not given)
4. CNc1nc2n(CCO)c(-c3ccccc3)c(-c3ccccc3)nc-2c(=O)n1
5. O=C(Cc1ccccc1)N/N=C/c1ccccc1O
6. COC(=O)C1=C(C(=O)OC)c2cc(OC)ccc2C(C(=S)N(C)C)S1 (stereo not given)
7. c1cc2c(ncc3cscc32)s1
8. O=S1(=O)N(CCNc2nccc(-c3c(-c4cccc(O)c4)nc4sccn34)n2)CCN1Cc1ccccc1

Return:
["> 100 µM", "> 100 µM", "39.6 µM", "> 50 µM", "> 100 µM", "> 100 µM", "> 100 µM", "> 50 µM"]

Take each entry in turn and give its TGI.
1. COc1cc2c3c(n(CCCCOC(=O)C(Cl)(Cl)Cl)c(=O)c2cc1OC)-c1cc2c(cc1C3=O)OCO2
2. COc1cc(O)c2c(c1)OCC(Cc1ccc(O)cc1)C2=O (stereo not given)
3. OC/C=C(\I)CCCOCOCc1ccccc1
4. Cc1nc2ccccc2n1C(=O)c1c(F)c(F)c(F)c(F)c1F
5. CCNc1cc2c(cc1O)CC[C@@H]1[C@@H]2CC[C@]2(C)[C@@H](O)CC[C@@H]12
6. c1ccc2c(c1)nc1n2CNC1
7. O=C1/C(=C/c2ccc(O)cc2)CSc2ccc(Cl)cc21

Return:
1. > 100 µM
2. > 100 µM
3. > 100 µM
4. 29 µM
5. 21.5 µM
6. > 100 µM
7. > 100 µM

---

Please go through the items and note down their GI50.
System: UO-31 renal
procedure text: NCI tumour cell line growth inhibition, 48 h

CC[CH2][Sn]([Cl])([Cl])[CH2]CC.Oc1ccccc1C=NCCN=Cc1ccccc1O = 5.45 µM
COc1cc2c3c(n(C)c(=O)c2cc1OC)-c1cc2c(cc1/C3=C\CNCCCN)OCO2 = 6.96 µM
CC[C@H](C)[C@H]1O[C@]2(C=C[C@@H]1C)C[C@@H]1C[C@@H](C/C=C(\C)[C@@H](O[C@H]3C[C@H](OC)[C@@H](O[C@H]4C[C@H](OC)[C@@H](NC)[C@H](C)O4)[C@H](C)O3)[C@@H](C)/C=C/C=C3\CO[C@@H]4[C@H](O)C(C)=C[C@@H](C(=O)O1)[C@]34O)O2 = 1.69 µM
COc1cc(NS(=O)(=O)c2ccc(-c3cnc(C4CC4)o3)cc2)ccc1F = 0.581 µM

Could you now look at the following compound, please?
Enquiry: Query (compound): Nc1nc(-c2cccc(Cl)c2)c(-c2ccc3ncccc3n2)s1 ; field requested: GI50
Return: 10.1 µM

---

System: ACHN renal
procedure text: NCI tumour cell line growth inhibition, 48 h
Please go through the items and note down their TGI.

COC(=O)[C@H](Cc1c[nH]c2ccccc12)NC(=O)[C@@H](OC)[C@@H]1Cc2cc3cc(OC4CC(OC5CC(O)C(O)C(C)O5)C(O)C(C)O4)c(C)c(O)c3c(O)c2C(=O)[C@H]1OC1CC(OC2CC(OC3CC(C)(O)C(O)C(C)O3)C(O)C(C)O2)C(O)C(C)O1 (stereo partly drawn) = 0.907 µM
CCOC(=O)C(O)(NC(=O)c1ccc(F)cc1)C(F)(F)F (stereo not drawn) = > 100 µM
Fc1ccc(C2SCc3nc4ccccc4n32)cc1Cl (stereo not drawn) = > 100 µM
COc1ccc(C2C3=C(Nc4ncnn42)c2ccccc2OC3c2ccccc2)cc1 (stereo not drawn) = > 100 µM
CCn1c2ccccc2n2c(=O)c3c(c(C#N)c12)CCCC3 = > 100 µM
O=C(/C=C\n1cnc(-c2cc(C(F)(F)F)cc(C(F)(F)F)c2)n1)NNc1cnccn1 = 13 µM
CCc1c(C)c(C#N)c(=S)n(C2OC(COC(C)=O)C(OC(C)=O)C(OC(C)=O)C2OC(C)=O)c1C (stereo not drawn) = > 100 µM
O=C1O/C(=C(/Br)c2ccc(Cl)c(Cl)c2)c2ccccc21 = > 10 µM

Take each entry in turn and give its TGI.
1. CCC(=O)c1c(C(F)(F)F)n([O-])c2ccc(C)cc2[n+]1=O
2. C/C=C1/C(=C/c2[nH]c(/C=c3\[nH]/c(=C/C4=NC(=O)C(CC)=C4C)c(C)c3CCC(=O)O)c(CCC(=O)O)c2C)NC(=O)C1C (stereo not drawn)
3. Cc1ccc(/C=C2\CCC/C(=C\c3ccc(O)c(CN4CCCCC4)c3)C2=O)cc1
4. CNc1nc(N)c(N=O)c(Nc2ccc(Br)cc2)n1
5. CNC(=O)N1CN(c2ccccc2)C2(CCN(CCCC3(c4ccc(F)cc4)OCCO3)CC2)C1=O
6. CCOC(=O)c1c(C)nc2c(c1N)/C(=C/c1ccc(OC)cc1)C(=O)N2Cc1ccc(F)cc1

Return:
["14.2 µM", "> 150 µg/mL", "18.6 µM", "> 100 µM", "> 100 µM", "0.529 µM"]
